# key: entry, value: solubility kinetic at 0.5 h
measurementNotes: Kinetic solubility of the compound in phosphate buffer after 30 mins by nephelometry at pH 6.5
Type: physicochemical
cond: read-out: Kinetic_solubility
observedProperty: solubility kinetic at 0.5 h (µg/mL)

molSmiles: CNC(=O)c1ccc(-c2cc(-c3ccc(S(C)(=O)=O)cc3)cnc2N)cc1
limitQualifier: =
reportedMeasurement: 25
//
molSmiles: CS(=O)(=O)c1ccc(-c2cnc(N)c(-c3ccc(C(F)(F)F)c(F)c3)c2)cc1
limitQualifier: =
reportedMeasurement: 1.6
//
molSmiles: CS(=O)(=O)c1ccc(-c2cnc(N)c(-c3cccc(C(F)(F)F)c3)c2)cc1
limitQualifier: =
reportedMeasurement: 3.1
//
molSmiles: CS(=O)(=O)c1ccc(-c2cnc(N)c(-c3ccc(C#N)cc3)c2)cc1
limitQualifier: =
reportedMeasurement: 1.6
//
molSmiles: CS(=O)(=O)c1ccc(-c2cnc(N)c(-c3ccc(F)nc3)c2)cc1
limitQualifier: =
reportedMeasurement: 25
//
molSmiles: CS(=O)(=O)c1ccc(-c2cnc(N)c(-c3ccc(S(C)(=O)=O)cc3)c2)cc1
limitQualifier: =
reportedMeasurement: 6.3
//
molSmiles: CS(=O)(=O)c1ccc(-c2cnc(N)c(-c3ccc(C(N)=O)cc3)c2)cc1
limitQualifier: =
reportedMeasurement: 25
//
molSmiles: Cc1ccc(-c2cc(-c3ccc(S(C)(=O)=O)cc3)cnc2N)c2cccnc12
limitQualifier: =
reportedMeasurement: 6.3
//
molSmiles: CS(=O)(=O)c1ccc(-c2cnc(N)c(-c3ccc(C(F)(F)F)cc3)c2)cc1
limitQualifier: <
reportedMeasurement: 1.6
//
molSmiles: COc1cc(-c2cc(-c3ccc(S(C)(=O)=O)cc3)cnc2N)ccc1O
limitQualifier: =
reportedMeasurement: 6.3
